- target-or-test-system: T1, IL-18 binding protein (IL-18BP) (UniProt O95998 31-194)
- T1 sequence (looked up): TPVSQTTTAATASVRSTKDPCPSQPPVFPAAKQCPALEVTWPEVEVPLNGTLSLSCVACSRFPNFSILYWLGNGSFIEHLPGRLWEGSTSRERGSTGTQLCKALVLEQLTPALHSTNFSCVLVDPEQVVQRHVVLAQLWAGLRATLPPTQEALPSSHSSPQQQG
- protocol: cell-based or functional assay
Entries and their Ratio (-BP/+BP), DF-5000006
Response field accepts a number only; no unit should be typed.

binder	readout	reported-measurement
IL-18 variant G3S, E6Q, K53S, D54Y, S55H, N91L, R104Q (ligand) YFSKLQSKLSVIRNLNDQVLFIDQGNRPLFEDMTDSDMRDNAPRTIFIISMYSYHQPRGMAVTISVKSEKISTLSSENKIISFKEMNPPDLIKDTKSDIIFFQQSVPGHDNKMQFESSSYEGYFLASEKERDLFKLILKKEDELGDRSIMFTVQNED	Ratio (-BP/+BP), DF-5000006	0.81

Now let's try a different one.
*Q* Which Ratio (-BP/+BP), DF-5000006 is listed for IL-18 variant G3N, E6S, K53Q, D54W, S55R, N91T, R104T (ligand) YFNKLSSKLSVIRNLNDQVLFIDQGNRPLFEDMTDSDMRDNAPRTIFIISMYQWRQPRGMAVTISVKSEKISTLSSENKIISFKEMNPPDTIKDTKSDIIFFQTSVPGHDNKMQFESSSYEGYFLASEKERDLFKLILKKEDELGDRSIMFTVQNED ?
*A* 0.93
